- EXPERIMENTAL SYSTEM: T1, SLAMF7
- T1 construct: coated protein in the ELISA; also called SLAMF7-StrepTag
- T1 chain: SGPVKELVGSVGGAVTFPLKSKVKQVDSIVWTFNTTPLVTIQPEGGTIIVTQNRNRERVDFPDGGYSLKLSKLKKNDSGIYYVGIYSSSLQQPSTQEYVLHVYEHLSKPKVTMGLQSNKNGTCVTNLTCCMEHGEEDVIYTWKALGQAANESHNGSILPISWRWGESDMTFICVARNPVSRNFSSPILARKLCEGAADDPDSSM
- PROTOCOL DETAILS: ELISA on coated SLAMF7-StrepTag, 150 ng IgG1; None 0.047
READOUT: ELISA Absorbance (405 nm-570 nm)
No unit in the answer, please; the number alone is enough.

Consider the worked cases shown below.
BINDER	ELISA Absorbance (405 nm-570 nm)
HW-97 chimeric rabbit-human IgG1 LA/LA/PG (antibody, V domains shown, Fc-silenced (L234A/L235A/P329G) IgG1, lambda; Alexa Fluor 647-labeled in single-step flow cytometry; Prototype of cluster C-97) VH: QKQLVESGGRLVTPGTPLTLTCTVTGIDLSSHGMSWVRQAPGKGLEWIGVIYPSGSTWYASWARGRFTISKTSTTVDLKMTSLTTEDTATHFCARGDVGGADNNIWGPGTLVTVSS VL: SFVLTQPASVQVDLGQTVSLTCTAETLSRSYASWYQQKPGQAPVLLIYRDTSRPSGVPDRFSGSSSGNTATLTISGAQAGDEADYYCATSDGSGSSYQYVFGGGTQLTVTG	0.051
HW-70 chimeric rabbit-human IgG1 LA/LA/PG (antibody, V domains shown, Fc-silenced (L234A/L235A/P329G) IgG1, lambda; Alexa Fluor 647-labeled in single-step flow cytometry; Cluster C-1) VH: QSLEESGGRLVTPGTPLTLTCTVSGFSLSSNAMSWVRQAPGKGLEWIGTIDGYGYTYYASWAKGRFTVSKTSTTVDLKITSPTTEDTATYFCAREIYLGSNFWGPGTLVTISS VL: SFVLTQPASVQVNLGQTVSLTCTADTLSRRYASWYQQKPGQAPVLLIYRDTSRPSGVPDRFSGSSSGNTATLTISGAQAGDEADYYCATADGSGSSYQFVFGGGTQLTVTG	0.047

Please look at the following binder next.
Which ELISA Absorbance (405 nm-570 nm) reading was recorded for the binder HW-81 chimeric rabbit-human IgG1 LA/LA/PG (antibody, V domains shown, Fc-silenced (L234A/L235A/P329G) IgG1, lambda; Alexa Fluor 647-labeled in single-step flow cytometry; Cluster C-45) VH: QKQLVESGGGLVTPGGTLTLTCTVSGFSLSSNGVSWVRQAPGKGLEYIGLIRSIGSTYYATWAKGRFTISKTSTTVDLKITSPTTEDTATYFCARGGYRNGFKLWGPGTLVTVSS VL: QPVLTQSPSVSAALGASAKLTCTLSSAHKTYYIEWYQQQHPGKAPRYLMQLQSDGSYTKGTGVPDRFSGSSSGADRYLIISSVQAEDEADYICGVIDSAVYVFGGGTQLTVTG ?
0.054
